The reported measurements were obtained from patent US12258327B2.

target: EGFR del19/C797S (Homo sapiens, UniProt P00533, C797S/DEL746-750); experiment: Biochemical EGFR kinase assay (Lance Ultra TR-FRET), double mutant del19/C797S; conditions: Km ATP; read-out: IC50 del19/C797S (nM) Km ATP
Sequence (P00533 with tags, fused parts or gaps DEL746-750/C797S): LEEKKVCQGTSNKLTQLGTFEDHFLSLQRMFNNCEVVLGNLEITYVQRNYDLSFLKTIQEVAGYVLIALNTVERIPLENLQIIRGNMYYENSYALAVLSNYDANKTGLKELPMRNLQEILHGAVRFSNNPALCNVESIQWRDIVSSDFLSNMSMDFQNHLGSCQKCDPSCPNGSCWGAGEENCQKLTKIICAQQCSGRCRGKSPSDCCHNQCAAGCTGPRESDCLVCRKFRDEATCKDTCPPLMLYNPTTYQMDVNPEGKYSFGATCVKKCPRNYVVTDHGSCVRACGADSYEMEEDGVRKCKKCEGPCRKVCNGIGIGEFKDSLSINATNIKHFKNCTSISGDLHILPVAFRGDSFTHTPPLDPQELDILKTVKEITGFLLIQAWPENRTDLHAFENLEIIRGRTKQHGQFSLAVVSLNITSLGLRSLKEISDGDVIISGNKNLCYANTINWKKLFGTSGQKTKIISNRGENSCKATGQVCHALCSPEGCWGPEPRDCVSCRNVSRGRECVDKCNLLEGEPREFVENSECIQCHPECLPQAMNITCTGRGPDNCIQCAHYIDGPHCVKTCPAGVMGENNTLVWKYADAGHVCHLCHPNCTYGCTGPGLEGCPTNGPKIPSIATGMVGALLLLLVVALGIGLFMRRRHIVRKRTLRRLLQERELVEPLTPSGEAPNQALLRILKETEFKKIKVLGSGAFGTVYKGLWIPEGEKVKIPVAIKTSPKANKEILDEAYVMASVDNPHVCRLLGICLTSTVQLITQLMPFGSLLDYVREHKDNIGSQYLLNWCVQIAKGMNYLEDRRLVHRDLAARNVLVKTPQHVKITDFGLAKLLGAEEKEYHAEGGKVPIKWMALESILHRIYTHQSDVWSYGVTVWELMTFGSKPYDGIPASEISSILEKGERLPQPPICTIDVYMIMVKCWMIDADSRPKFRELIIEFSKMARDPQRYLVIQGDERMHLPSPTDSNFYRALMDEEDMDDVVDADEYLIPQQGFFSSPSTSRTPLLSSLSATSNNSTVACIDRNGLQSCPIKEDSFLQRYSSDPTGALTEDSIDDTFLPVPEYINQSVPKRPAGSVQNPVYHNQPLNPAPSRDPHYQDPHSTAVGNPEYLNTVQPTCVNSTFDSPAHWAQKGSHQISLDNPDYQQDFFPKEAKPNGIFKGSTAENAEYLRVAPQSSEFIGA
measured attribute: IC50 (nM)

P: C[C@]1(F)CC[C@@H](Nc2cc(Nc3ccnc(-c4cnn(S(=O)(=O)C5CC5)c4)n3)ncc2-c2ccn(C(F)F)n2)CC1
Q: O=S(=O)(C1CC1)n1cc(-c2nccc(Nc3cc(NC4CC5(CC(O)C5)C4)c(-c4ccn(C(F)F)n4)cn3)n2)cn1 (stereo not drawn)
R: Cn1cc(C#Cc2cc(Nc3ccnc(-c4cnn(S(=O)(=O)C5CC5)c4)n3)ncc2-c2cnn(C3CC3)c2)cn1
Exercise: List the 3 entries from lowest IC50 to highest IC50 value. Form field (ranking): labels in requested order.
Solution: Q, R, P

---

target: EGFR L858R/T790M/C797S (Homo sapiens, UniProt P00533, C797S/L858R/T790M); experiment: Biochemical EGFR kinase assay (Lance Ultra TR-FRET), triple mutant L858R/T790M/C797S; conditions: IC50 L858R/T790M/C797S (nM) 100 μM ATP, 100 μM ATP
Sequence (P00533 25-1210 T790M/C797S/L858R): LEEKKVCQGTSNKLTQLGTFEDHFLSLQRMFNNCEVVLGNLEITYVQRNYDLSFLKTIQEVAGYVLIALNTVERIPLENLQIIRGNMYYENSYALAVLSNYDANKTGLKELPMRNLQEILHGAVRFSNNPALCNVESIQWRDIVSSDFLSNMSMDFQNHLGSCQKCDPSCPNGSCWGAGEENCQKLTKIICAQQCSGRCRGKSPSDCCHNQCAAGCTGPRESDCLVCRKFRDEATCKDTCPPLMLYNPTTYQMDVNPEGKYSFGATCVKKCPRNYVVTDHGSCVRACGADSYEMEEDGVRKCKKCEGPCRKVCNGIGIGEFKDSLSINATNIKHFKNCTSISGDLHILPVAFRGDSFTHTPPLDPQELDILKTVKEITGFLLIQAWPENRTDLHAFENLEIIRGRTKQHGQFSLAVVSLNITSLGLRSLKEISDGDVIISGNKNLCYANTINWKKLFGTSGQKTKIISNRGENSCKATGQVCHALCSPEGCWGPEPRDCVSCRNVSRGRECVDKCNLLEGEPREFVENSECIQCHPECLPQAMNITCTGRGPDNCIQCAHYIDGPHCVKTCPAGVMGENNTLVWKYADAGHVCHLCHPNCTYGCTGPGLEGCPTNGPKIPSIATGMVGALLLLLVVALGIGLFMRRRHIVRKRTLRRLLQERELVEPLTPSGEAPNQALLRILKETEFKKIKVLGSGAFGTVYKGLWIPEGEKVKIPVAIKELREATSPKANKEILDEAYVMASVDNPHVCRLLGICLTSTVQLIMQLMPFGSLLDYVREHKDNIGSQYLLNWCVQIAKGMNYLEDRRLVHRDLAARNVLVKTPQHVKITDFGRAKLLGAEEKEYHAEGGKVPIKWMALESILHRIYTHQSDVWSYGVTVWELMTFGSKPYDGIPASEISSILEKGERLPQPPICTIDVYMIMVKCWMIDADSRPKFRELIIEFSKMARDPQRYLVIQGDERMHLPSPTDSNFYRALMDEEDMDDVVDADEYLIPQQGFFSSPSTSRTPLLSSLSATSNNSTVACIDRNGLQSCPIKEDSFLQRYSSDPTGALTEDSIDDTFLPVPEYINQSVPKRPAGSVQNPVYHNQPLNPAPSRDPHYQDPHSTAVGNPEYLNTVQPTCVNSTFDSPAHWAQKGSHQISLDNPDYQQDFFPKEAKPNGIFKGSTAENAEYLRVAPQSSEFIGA
measured attribute: IC50 (nM)

Here are 2 compounds together with their reported answers.
[
  {
    "compound": "O=C1NCCCC1Nc1cc(Nc2ccnc(-c3cnn(S(=O)(=O)C4CC4)c3)n2)ncc1-c1ccn(C(F)F)n1 (stereo not shown)",
    "tested system": "EGFR L858R/T790M/C797S (Homo sapiens, UniProt P00533, C797S/L858R/T790M)",
    "IC50 [nM]": 2.5
  },
  {
    "compound": "CN(C)CCNC1CCC(Nc2cc(Nc3ccnc(-c4cnn(S(=O)(=O)C5CC5)c4)n3)ncc2-c2csc(C(F)(F)F)n2)CC1 (stereo not shown)",
    "tested system": "EGFR L858R/T790M/C797S (Homo sapiens, UniProt P00533, C797S/L858R/T790M)",
    "IC50 [nM]": 2.7
  }
]

a: C[C@]1(O)CC[C@@H](Nc2cc(Nc3ccnc(-c4cnn(S(=O)(=O)C5CC5)c4)n3)ncc2-c2cn(C(F)F)cn2)CC1
b: Cn1ccc(-c2cnc(Nc3ccnc(-c4cnn(S(=O)(=O)C5CC5)c4)n3)cc2NC2CCC(F)(CO)CC2)n1 (stereo not shown)
Exercise: Which record would sort first by descending IC50, a or b ? Bench note: the answer is the label of the chosen record.
Solution: a

---

target: EGFR del19/T790M/C797S (Homo sapiens, UniProt P00533, C797S/DEL746-750/T790M); assay: Biochemical EGFR kinase assay (Lance Ultra TR-FRET), triple mutant del19/T790M/C797S; details: IC50 del19/T790M/C797S (nM) 100 μM ATP, 100 μM ATP
Sequence (P00533 with tags, fused parts or gaps DEL746-750/T790M/C797S): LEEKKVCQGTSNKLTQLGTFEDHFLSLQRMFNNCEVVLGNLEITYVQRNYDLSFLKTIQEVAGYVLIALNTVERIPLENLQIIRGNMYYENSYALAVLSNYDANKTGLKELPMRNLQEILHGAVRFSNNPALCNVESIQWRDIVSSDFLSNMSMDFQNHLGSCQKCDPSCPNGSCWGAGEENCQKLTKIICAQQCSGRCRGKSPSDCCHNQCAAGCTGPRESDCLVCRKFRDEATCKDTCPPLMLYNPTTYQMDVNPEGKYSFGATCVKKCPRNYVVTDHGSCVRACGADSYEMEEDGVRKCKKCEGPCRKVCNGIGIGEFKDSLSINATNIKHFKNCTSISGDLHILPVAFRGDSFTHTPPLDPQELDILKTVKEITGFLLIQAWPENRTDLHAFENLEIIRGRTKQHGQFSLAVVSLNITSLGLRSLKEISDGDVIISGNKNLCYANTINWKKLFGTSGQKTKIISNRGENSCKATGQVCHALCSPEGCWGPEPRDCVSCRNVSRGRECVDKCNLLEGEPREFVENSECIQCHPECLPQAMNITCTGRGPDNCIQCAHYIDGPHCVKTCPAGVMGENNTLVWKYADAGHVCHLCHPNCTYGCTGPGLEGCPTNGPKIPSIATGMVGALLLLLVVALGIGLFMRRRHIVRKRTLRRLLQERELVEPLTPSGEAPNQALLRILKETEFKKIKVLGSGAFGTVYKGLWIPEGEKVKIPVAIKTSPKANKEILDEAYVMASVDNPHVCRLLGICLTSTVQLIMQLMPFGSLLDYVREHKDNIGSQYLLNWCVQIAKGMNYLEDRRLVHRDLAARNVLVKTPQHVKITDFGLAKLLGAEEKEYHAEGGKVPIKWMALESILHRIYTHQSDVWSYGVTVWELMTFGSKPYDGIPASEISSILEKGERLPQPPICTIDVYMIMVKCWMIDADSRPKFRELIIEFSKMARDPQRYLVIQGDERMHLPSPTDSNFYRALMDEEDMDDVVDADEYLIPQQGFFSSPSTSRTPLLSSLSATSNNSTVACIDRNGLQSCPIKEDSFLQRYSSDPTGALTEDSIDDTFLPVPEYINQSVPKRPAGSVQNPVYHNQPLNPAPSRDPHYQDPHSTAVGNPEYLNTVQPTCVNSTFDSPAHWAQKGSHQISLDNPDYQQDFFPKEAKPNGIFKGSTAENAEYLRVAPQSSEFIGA
measured attribute: IC50 (nM)

Here are 8 molecules together with their reported answers.
[
  {
    "molecule": "O=S(=O)(C1CC1)n1cc(-c2nccc(Nc3cc(NCC4(CO)COC4)c(-c4ccn(C(F)F)n4)cn3)n2)cn1 [Example 197]",
    "IC50 [nM]": 0.2
  },
  {
    "molecule": "O=S(=O)(C1CC1)n1cc(-c2nccc(Nc3cc(N[C@H]4CC[C@@H](NCCF)CC4)c(-c4csc(N5CCOCC5)n4)cn3)n2)cn1 [Example 126]",
    "IC50 [nM]": 0.8
  },
  {
    "molecule": "CN(C)CC1(C)CCC(Nc2cc(Nc3ccnc(-c4cnn(S(=O)(=O)C5CC5)c4)n3)ncc2-c2ccn(CC(F)(F)F)n2)CC1 (stereo not shown) [Example 267]",
    "IC50 [nM]": 0.1
  },
  {
    "molecule": "Cc1ncc(-c2cnc(Nc3ccnc(-c4cnn(S(=O)(=O)C5CC5)c4)n3)cc2N2CCC(O)CC2)s1 [Example 89]",
    "IC50 [nM]": 1.3
  },
  {
    "molecule": "O=S(=O)(C1CC1)n1cc(-c2nccc(Nc3cc(NC4CCC(F)(CO)CC4)c(-c4cc5n(n4)CCCC5)cn3)n2)cn1 (stereo not shown) [Example 276]",
    "IC50 [nM]": 1.1
  },
  {
    "molecule": "O=S(=O)(C1CC1)n1cc(-c2nccc(Nc3cc(N[C@H]4CCC[C@H](O)C4)c(-c4ccn(C(F)F)n4)cn3)n2)cn1 [Example 21]",
    "IC50 [nM]": 1.3
  },
  {
    "molecule": "CN1CC(Nc2cc(Nc3ccnc(-c4cnn(S(=O)(=O)C5CC5)c4)n3)ncc2-c2ccn(C(F)F)n2)CCC1=O (stereo not shown) [Example 37]",
    "IC50 [nM]": 1.4
  },
  {
    "molecule": "Cn1ccc(-c2cnc(Nc3ccnc(-c4cnn(S(=O)(=O)C5CC5)c4)n3)cc2N[C@H]2CC[C@@H](NCC(F)F)CC2)n1 [Example 45]",
    "IC50 [nM]": 0.2
  }
]

I: Cn1nc(-c2cnc(Nc3ccnc(-c4cnn(S(=O)(=O)C5CC5)c4)n3)cc2N[C@H]2CCC[C@H](CO)C2)cc1C(F)(F)F [Example 260]
II: O=S(=O)(C1CC1)n1cc(-c2nccc(Nc3cc(N[C@H]4CC[C@@H](CN5CCC5)CC4)c(-c4ccn(CC(F)(F)F)n4)cn3)n2)cn1 [Example 272]
III: CN(C)C[C@H]1CC[C@@H](Nc2cc(Nc3ccnc(-c4cnn(S(=O)(=O)C5CC5)c4)n3)ncc2-c2cc3n(n2)CCCC3)CC1 [Example 277]
IV: O=S(=O)(C1CC1)n1cc(-c2nccc(Nc3cc(NCCCn4ccnc4)c(-c4ccn(C(F)F)n4)cn3)n2)cn1 [Example 41]
Exercise: Task for the reader: rank each entry by its IC50, from the minimum upward. Form field (ranking): labels in requested order.
Solution: III, II, IV, I

---

biological target: EGFR del19/C797S (Homo sapiens, UniProt P00533, C797S/DEL746-750); assay: Biochemical EGFR kinase assay (Lance Ultra TR-FRET), double mutant del19/C797S; conditions: IC50 del19/C797S (nM) 100 μM ATP, 100 μM ATP
measured attribute: IC50 (nM)

1: Cn1ccc(-c2cnc(Nc3ccnc(-c4cnn(S(=O)(=O)C5CC5)c4)n3)cc2NC2CCC(F)(CO)CC2)n1 (stereo not drawn)
2: CN(C)C(=O)[C@H]1CC[C@@H](Nc2cc(Nc3ccnc(-c4cnn(S(=O)(=O)C5CC5)c4)n3)ncc2-c2ccn(C(F)F)n2)CC1
3: O=S(=O)(C1CC1)n1cc(-c2nccc(Nc3cc(NC4CC5CC(O)C4C5)c(-c4ccn(C(F)F)n4)cn3)n2)cn1 (stereo not drawn)
4: CN(CC(F)F)C[C@H]1CC[C@@H](Nc2cc(Nc3ccnc(-c4cnn(S(=O)(=O)C5CC5)c4)n3)ncc2-c2cc(C(F)(F)F)n(C)n2)CC1
5: C[C@]1(O)CC[C@H](CNc2cc(Nc3ccnc(-c4cnn(S(=O)(=O)C5CC5)c4)n3)ncc2-c2ccn(C(F)F)n2)CC1
Exercise: Please rank the 5 items above; order by IC50, the highest number leading. Form field (ranking): labels in requested order.
Solution: 4, 3, 5, 2, 1

---

molecular target: EGFR L858R/T790M/C797S (Homo sapiens, UniProt P00533, C797S/L858R/T790M); experiment: Biochemical EGFR kinase assay (Lance Ultra TR-FRET), triple mutant L858R/T790M/C797S; details: Km ATP; read-out: IC50 L858R/T790M/C797S (nM) Km ATP
measured attribute: IC50 (nM)

Here are 6 compounds together with their reported answers.
[
  {
    "compound": "CN(C)C[C@H]1CC[C@@H](Nc2cc(Nc3ccnc(-c4cnn(S(=O)(=O)C5CC5)c4)n3)ncc2-c2ccn(C)n2)CC1",
    "IC50, nM": 0.1
  },
  {
    "compound": "O=S(=O)(C1CC1)n1cc(-c2nccc(Nc3cc(NC4CC5CC(O)C4C5)c(-c4ccn(C(F)F)n4)cn3)n2)cn1 (stereo not shown)",
    "IC50, nM": 1.2
  },
  {
    "compound": "O=S(=O)(C1CC1)n1cc(-c2nccc(Nc3cc(N[C@H]4CC[C@@H](CO)CC4)c(-c4ccn(C5CC5)n4)cn3)n2)cn1",
    "IC50, nM": 0.1
  },
  {
    "compound": "Cn1ccc(-c2cnc(Nc3ccnc(-c4cnn(S(=O)(=O)C5CC5)c4)n3)cc2N[C@H]2CC[C@](O)(CO)CC2)n1",
    "IC50, nM": 0.2
  },
  {
    "compound": "O=S(=O)(C1CC1)n1cc(-c2nccc(Nc3cc(N[C@H]4CCC[C@H](CO)C4)c(-c4ccn(C(F)F)n4)cn3)n2)cn1",
    "IC50, nM": 0.5
  },
  {
    "compound": "O=S(=O)(C1CC1)n1cc(-c2nccc(Nc3cc(C#Cc4cnn(C5CC5)c4)c(-c4cnn(C5CC5)c4)cn3)n2)cn1",
    "IC50, nM": 13.2
  }
]

A: Cn1ccc(-c2cnc(Nc3ccnc(-c4cnn(S(=O)(=O)C5CC5)c4)n3)cc2N[C@H]2CC[C@@H](CCO)CC2)n1
B: CN(C)C[C@H]1CC[C@@H](Nc2cc(Nc3ccnc(-c4cnn(S(=O)(=O)C5CC5)c4)n3)ncc2-c2ccn(C(F)F)n2)CC1
Exercise: Which record would sort first by descending IC50, A or B ? Bench note: the answer is the label of the chosen record.
Solution: A
(A: 0.4 nM, B: 0.04 nM)

A: O=S(=O)(C1CC1)n1cc(-c2nccc(Nc3cc(N[C@H]4CC[C@@H](F)CC4)c(-c4ccn(CCC(F)(F)F)n4)cn3)n2)cn1
B: O=S(=O)(C1CC1)n1cc(-c2nccc(Nc3cc(NC4CCCC(F)C4)c(-c4ccn(C(F)F)n4)cn3)n2)cn1 (stereo not shown)
C: Cn1ccc(-c2cnc(Nc3ccnc(-c4cnn(S(=O)(=O)C5CC5)c4)n3)cc2N[C@H]2CC[C@@H](NCC(F)F)CC2)n1
Exercise: Task for the reader: rank each entry by its IC50, from the minimum upward. Form field (ranking): labels in requested order.
Solution: C, B, A

A: C[C@]1(O)CC[C@@H](Nc2cc(Nc3ccnc(-c4cnc5c(c4)NCCO5)n3)ncc2-c2ccn(C(F)F)n2)CC1
B: C[C@]1(O)CC[C@@H](Nc2cc(Nc3ccnc(-c4cnn(S(=O)(=O)C5CC5)c4)n3)ncc2-c2nc(C(F)F)cs2)CC1
Exercise: Which record would sort first by descending IC50, A or B ? Bench note: the answer is the label of the chosen record.
Solution: B
(B: 0.3 nM, A: 0.2 nM)
